Molecular target: T1, human nectin-4 protein expressed on the surface of cells (human, UniProt Q96NY8 32-510)
T1 sequence: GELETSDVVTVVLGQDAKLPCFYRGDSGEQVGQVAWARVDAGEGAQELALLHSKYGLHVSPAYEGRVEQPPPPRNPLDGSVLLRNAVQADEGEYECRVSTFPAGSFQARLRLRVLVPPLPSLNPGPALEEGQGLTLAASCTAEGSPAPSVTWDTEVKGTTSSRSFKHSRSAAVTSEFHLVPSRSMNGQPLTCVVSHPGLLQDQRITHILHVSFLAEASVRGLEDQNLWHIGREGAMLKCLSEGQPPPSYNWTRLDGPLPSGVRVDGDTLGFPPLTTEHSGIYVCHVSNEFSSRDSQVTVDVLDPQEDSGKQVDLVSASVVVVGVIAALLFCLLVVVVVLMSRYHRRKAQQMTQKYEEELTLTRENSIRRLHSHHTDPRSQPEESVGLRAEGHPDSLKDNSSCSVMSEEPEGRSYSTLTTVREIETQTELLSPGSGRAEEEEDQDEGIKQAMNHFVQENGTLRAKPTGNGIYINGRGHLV
Experiment: cell-based or functional assay
Record form. Attribute: Cell kill IC50, SKBR3. Fill in for each entry.
Answers are plain numbers, in nM.

Known Cell kill IC50, SKBR3 results, listed for orientation:
| binder | reported property | observed result |
| --- | --- | --- |
| Nectin-4 5D9 VH2/VL5 (antibody, V domains shown, Humanized; also called 5D9 VH variant 2 / 5D9 VL variant 5) VH: QVQLQESGPGLVKPSETLSLTCTVSGFSITNYGVHWIRQPPGKGLEWLGVIWSGGSTDYNASLVSRVTISRDTSKSQFFLKLNSVQADDTAVYYCARSGKWYYFDYWGQGTTVTVSS VL: DIQMTQSPSSLSASVGDRVTITCRASQSIYSNLAWYQQKPGKAPKLLVYAATNLQSGVPSRFSGSGSGTDFTLTISSLQPEDFATYYCQHFWGTPTFGGGTKVEIK | Cell kill IC50, SKBR3 | 234 |
| Nectin-4 5D9 VH1/VL2 (antibody, V domains shown, Humanized; also called 5D9 VH variant 1 / 5D9 VL variant 2) VH: QVQLKESGPGLVQPSETLSLTCTVSGFSITNYGVHWIRQSPGKGLEWLGVIWSGGSTDYNAAFVSRVTISRDNSKSQVFFKLNSVQADDTAVYYCARSGKWYYFDYWGQGTTVTVSS VL: DIQMTQSPSSLSASVGDTVTITCRASQNIYSNLAWYQQKQGKAPKLLVYAATNLADGVPSRFSGSGSGTDFTLKINSLQPEDFATYYCQHFWGTPTFGGGTKVEIK | Cell kill IC50, SKBR3 | 9.85 |

Now for the binder whose Cell kill IC50, SKBR3 we want.
Return reported Cell kill IC50, SKBR3; argument: Nectin-4 5D9 VH1/VL4 (antibody, V domains shown, Humanized; also called 5D9 VH variant 1 / 5D9 VL variant 4) VH: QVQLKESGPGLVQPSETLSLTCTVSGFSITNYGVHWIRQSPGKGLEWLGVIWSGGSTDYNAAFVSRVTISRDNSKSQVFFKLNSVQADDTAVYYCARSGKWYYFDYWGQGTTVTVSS VL: DIQMTQSPSSLSASVGDRVTITCRASENIYSNLAWYQQKPGKAPKLLVYAATNLADGVPSRFSGSGSGTDYTLTISSLQPEDFATYYCQHFWGTPTFGGGTKVEIK 9.02
